Just for reference, patent US7829665B2 is where these values come from.

Examples of compounds with documented pIC50 follow.
targetSystem: full-length NS3/NS4A-2 (HCV NS3 protease) (Hepatitis C virus genotype 1a, UniProt P27958)
Construct: Recombinant E. coli or Baculovirus full-length NS3 was diluted to 3.33 μM with assay buffer; made in house; host or cells: E. coli or baculovirus (BV) expression system
Sequence (P27958 1027-1657): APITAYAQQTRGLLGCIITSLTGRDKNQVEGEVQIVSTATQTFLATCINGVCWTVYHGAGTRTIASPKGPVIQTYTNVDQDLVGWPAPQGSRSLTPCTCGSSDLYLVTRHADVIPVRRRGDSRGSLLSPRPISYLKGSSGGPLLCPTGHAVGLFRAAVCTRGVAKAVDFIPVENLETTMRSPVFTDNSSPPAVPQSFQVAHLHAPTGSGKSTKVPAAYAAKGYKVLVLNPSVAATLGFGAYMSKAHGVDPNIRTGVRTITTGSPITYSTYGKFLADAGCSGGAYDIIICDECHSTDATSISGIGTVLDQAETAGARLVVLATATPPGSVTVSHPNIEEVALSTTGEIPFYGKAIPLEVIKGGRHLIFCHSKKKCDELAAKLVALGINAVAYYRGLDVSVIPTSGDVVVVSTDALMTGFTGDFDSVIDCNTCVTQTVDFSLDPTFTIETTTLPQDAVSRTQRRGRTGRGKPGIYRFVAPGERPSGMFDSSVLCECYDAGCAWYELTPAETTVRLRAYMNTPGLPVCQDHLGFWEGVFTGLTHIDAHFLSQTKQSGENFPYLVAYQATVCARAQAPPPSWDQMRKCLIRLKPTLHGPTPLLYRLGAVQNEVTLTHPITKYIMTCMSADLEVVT
test: NS3-NS4 protease assay / NS3 inhibition assay (RETS1 substrate, fluorescence kinetic read)
Assay type: biochemical
conditionDescription: recombinant E. coli or Baculovirus full-length NS3 with NS4A-2; read-out: NS3-NS4 IC50
pIC50: −log10 of the molar value.

{"compound": "O=C1N[C@]2(C(=O)NCC3CC3)C[C@H]2/C=C\\CCCCC[C@H](NC2CCC2)C(=O)N2C[C@H](OC(=O)N3Cc4cccc(F)c4C3)C[C@@H]12", "targetSystem": "full-length NS3/NS4A-2 (HCV NS3 protease) (Hepatitis C virus genotype 1a, UniProt P27958)", "pIC50": "> 5.00"}
{"compound": "CC(C)(C)OC(=O)N[C@H]1CCCCC/C=C\\[C@@H]2C[C@@]2(C(=O)NS(=O)(=O)c2cccs2)NC(=O)[C@@H]2C[C@@H](OC(=O)N3Cc4cccc(Cl)c4C3)CN2C1=O", "targetSystem": "full-length NS3/NS4A-2 (HCV NS3 protease) (Hepatitis C virus genotype 1a, UniProt P27958)", "pIC50": "> 7.00"}
{"compound": "CN(c1ccccc1Cl)S(=O)(=O)NC(=O)[C@@]12C[C@H]1/C=C\\CCCCC[C@H](NC(=O)OC(C)(C)C)C(=O)N1CCC[C@H]1C(=O)N2", "targetSystem": "full-length NS3/NS4A-2 (HCV NS3 protease) (Hepatitis C virus genotype 1a, UniProt P27958)", "pIC50": "> 5.00"}
{"compound": "O=C(N[C@H]1CCCCC/C=C\\[C@@H]2C[C@@]2(C(=O)NS(=O)(=O)c2ccccc2)NC(=O)[C@@H]2C[C@@H](OC(=O)N3CCc4ccccc4C3)CN2C1=O)OC1CCCC1", "targetSystem": "full-length NS3/NS4A-2 (HCV NS3 protease) (Hepatitis C virus genotype 1a, UniProt P27958)", "pIC50": "> 7.00"}
{"compound": "CC(C)(C)OC(=O)NC1CCCCCCCC=CC2CC2(C(=O)NS(=O)(=O)c2ccccc2)NC(=O)C2CCCN2C1=O (centres unmarked)", "targetSystem": "full-length NS3/NS4A-2 (HCV NS3 protease) (Hepatitis C virus genotype 1a, UniProt P27958)", "pIC50": "> 5.00"}
